Listed here: compounds with reported IC50 for Human immunodeficiency virus type 1 integrase (Human immunodeficiency virus 1).
readout_label: IC50 (nM)

chem_smiles	IC50 [nM]
O=C(NCc1ccc(F)cc1F)c1cc2cccc(O)c2n(O)c1=O	1800

a. O=C(NCc1ccc(F)cc1F)c1c(O)c2cccnc2n(O)c1=O
b. O=C(NCc1ccc(F)c(Cl)c1)c1cc2cccnc2n(O)c1=O
Request: Between a and b , which one shows the smaller IC50 number? Select an item and report its label.
Response: b
(b: 140 nM, a: 550 nM)
